Recorded apparent Kd, one value per entry.
- Tested on: MS2 coat protein
- assay: apparent Kd, MS2 coat protein; higher = weaker binding; RNA-MaP array; tryptophan 2.4 mM where present
- conditions: designed as: OFF switch for tryptophan; no ligand
Supply the numeric figure in nM, leaving out any unit text.

# count of solved cases: 5
[[record]]
sequence_entry = "GCCGCGGCCGGAAUAAACAUGGGUAAAUAACGAGGACCGGUACGGCCGCCACUCGAGAUAAAUAACAUGAGGAUCACCCAUGUAC"
readout_label = "apparent Kd"
quantitative_result = 163

[[record]]
sequence_entry = "ACAUGAGGAUCACCCAUGUUAAACAGGGUGCGAGGACCGGUACGGCCGCCACUCGGACAUUAUUACGAGUGAAUGGCAACGAUGU"
readout_label = "apparent Kd"
quantitative_result = 15.8

[[record]]
sequence_entry = "AAGACAUGAGGAUCACCCAUGUCGUCUACACGAGGACCGGUACGGCCGCCACUCGUUUGCCAAUGAGCGCAUGCGGCCUGGGUAU"
readout_label = "apparent Kd"
quantitative_result = 13.3

[[record]]
sequence_entry = "AUAAAUAAUAAAUAAAAUAAAGUGGGUGAACGAGGACCGGUACGGCCGCCACUCGGACAUGAGGAUCACCCAUGUCCAUGUGAAA"
readout_label = "apparent Kd"
quantitative_result = 17.2

[[record]]
sequence_entry = "GCUGUGAAGUCGGCCGCCACUGGUUAGUUUUACCUCAUGUAACAUGAGGAUCACCCAUGUAAUUUCAGGACCGGGACAACAGCAA"
readout_label = "apparent Kd"
quantitative_result = 278


Q: Answer with the recorded apparent Kd for the sequence listed here: AGAUGAGUCACGGCCGCCACUCUUAUCAGGAUCACCCAUGGUUGACAUGAGGAUCACCCAUGUAUGAGGACCGGGUGAUGAGCAU
Result: 12.2

Q: Answer with the recorded apparent Kd for the sequence listed here: UUGCCCAGUACGGCCGCCACUGUGUGCAGGGAGCCCAGGUCCACAUGAGGAUCACCCAUGUACAACAGGACCGGGUACUUGCAAU
Result: 9.36

---

- Tested on: MS2 coat protein
- assay: apparent Kd, MS2 coat protein; higher = weaker binding; RNA-MaP array
- conditions: ligand present: flavin mononucleotide; designed as: ON switch for flavin mononucleotide
readout label: apparent Kd

# count of solved cases: 6
[[record]]
sequence_entry = "ACUCCACAUGAGGAUCACCCAUGUUAUAAGUAGGUAGGAUAUCACACAAACUUACAUGGAUGAGAAGGACCGGUCC"
readout_label = "apparent Kd"
result = "210 nM"

[[record]]
sequence_entry = "GUUUUGCGAAUAGGAUAUAGUAAUGAUUCAGGAAGCCUGAACAUGAGGAUCACCCAUGUGCCAUCCUAGAAGGAUUCGCACGUG"
readout_label = "apparent Kd"
result = "186 nM"

[[record]]
sequence_entry = "UAUAAGGGUCAGAAGGCAGUGGCGCAGAAUGACUGAGGAUAUGAUAACCGGUAAUUUAACAUGAGGAUCACCCAUGUCUACAAC"
readout_label = "apparent Kd"
result = "10.2 nM"

[[record]]
sequence_entry = "AGCUAUUUUUGGGAGGAUAUUAUGAGCAGUACAUGAGGAUCACCCAUGUUAGUAAUAUACAUUGGUAAGAAGGCCCAAUCAUAAGG"
readout_label = "apparent Kd"
result = "25.1 nM"

[[record]]
sequence_entry = "GCUGAUAUCAAGAAGGCGAUCAGGGAAUAAGAGACAUGAGGAUCACCCAUGUACGCCAUUUGUAUCGAGGAUAUUGAAAAUAGG"
readout_label = "apparent Kd"
result = "7.42 nM"

[[record]]
sequence_entry = "UCGCGUCUAGCUCAGGAUAUUGUGCCUGAUACAUGAGGAUCACCCAUGUCCUAAGUGCAAACCAACAAGAAGGGAGCUAAGCAUGU"
readout_label = "apparent Kd"
result = "13.2 nM"


Q: # lookup: MS2 coat protein apparent Kd, key = UCGGUGUAAGAGAAGGAAGUGUUCGCAGGCCAAGGCUCAUUGGCUACAUGAGGAUCACCCAUGUCUUAGGAUAUCUGCGCUCCG
Result: 16.7 nM

Q: # lookup: MS2 coat protein apparent Kd, key = UCGGUUUGUGCAGGAUAUGCUUACACCCUAGAGGCAGAAGGGCAUAUCACAUGAGGAUCACCCAUGUACAAUCGUCCAAGGGCA
Result: 23.4 nM
